The compounds listed here are annotated with their log2fc.
- System: ACHN cell line
- MEASUREMENT_NOTES: drug screen of the SelleckChem kinase inhibitor library with and without 5 uM SU-329, Cell-Titer Glo after 5 days
- Assay type: cell-based
- EXPERIMENTAL_CONTEXT: kinase inhibitor at 200 nM with and without 5 uM SU329; ACHN cell line; 5 days; Cell-Titer Glo
Where a name gives a salt, the structure may show the parent alone.
READOUT_LABEL: log2fc

1. COc1ccc(COc2cc3oc(=O)c4cc(C(C)O)ccc4c3cc2OC)cc1 (stereo not shown) [Palomid 529 (P529)] | 0.3192
2. CC(C)(C)c1cc(C=C(C#N)C#N)cc(Br)c1O [AG-1024] | −0.3636
3. O=C(O)c1ccc(Nc2ncc3c(n2)-c2ccc(Cl)cc2C(c2c(F)cccc2F)=NC3)cc1 [MLN8054] | 0.07059
4. Cc1ccc(NC(=O)c2ccc(CN3CCN(C)CC3)cc2)cc1Nc1nccc(-c2cccnc2)n1 [Imatinib Mesylate (STI571), imatinib, reference compound] | 0.1536
5. CCOc1ccn(-c2ccc(F)cc2)c(=O)c1C(=O)Nc1ccc(Oc2ccnc(N)c2Cl)c(F)c1 [BMS-777607] | −0.5095
6. Cc1cc(O)c2c(c1)C(=O)c1cccc(O)c1C2=O [Chrysophanic Acid] | −0.1902
7. CCCCOc1c(C(=O)c2c(F)cc(C)cc2F)c[nH]c2nncc1-2 [BMS-265246] | −0.1077
8. CCn1c(=O)c(-c2ccc(-c3cncs3)cc2Cl)cc2cnc(Nc3ccc(N4CCN(C)CC4)cc3)nc21 [FRAX597] | −0.0718
9. Cc1nc(Nc2ncc(C(=O)Nc3c(C)cccc3Cl)s2)cc(N2CCN(CCO)CC2)n1 [Dasatinib, dasatinib, reference compound] | −0.196
10. CCN1CCN(Cc2ccc(-c3cc4c(N[C@H](C)c5ccccc5)ncnc4[nH]3)cc2)CC1 [AEE788 (NVP-AEE788), AEE788, reference compound] | 0.07427
11. CCOc1cc2ncc(C#N)c(Nc3ccc(F)c(Cl)c3)c2cc1NC(=O)/C=C/CN(C)C [Pelitinib (EKB-569)] | 0.96
12. O=C(NOCC(O)CO)c1cc(Br)c(F)c(F)c1Nc1ccc(I)cc1F (stereo not shown) [PD318088] | 0.4184
13. COc1cc2ncnc(Nc3ccc(F)c(Cl)c3)c2cc1NC(=O)/C=C/CN1CCCCC1 [Dacomitinib (PF299804, PF299)] | 0.3997
14. COc1cc2c(c(OC)c1OC)-c1c(cc3c(c1OC)OCO3)CC(C)C(C)C2 (stereo not shown) [Schisandrin B (Sch B)] | 0.5674
15. Cc1ccc(S(=O)(=O)/C=C/C#N)cc1 [BAY 11-7082, reference compound] | −0.1258
16. CCc1nc(-c2cccc(C)c2)c(-c2ccnc(NC(=O)c3ccccc3)c2)s1 [TAK-715] | 0.02439

----------
The compounds listed here are annotated with their pIC50.
- Tested on: most sensitive cancer cell line
- MEASUREMENT_NOTES: cell activity: CTG anti-proliferation in most sensitive cancer cell line
- Type: cell-based
- EXPERIMENTAL_CONTEXT: APA analogs
pIC50: −log10 of the molar value.
READOUT_LABEL: pIC50

1) CO[P@@](C)(=O)CS(=O)(=O)c1ccc(NC(=O)c2nc(-c3ccc(C)cc3)cnc2N)cc1 | > 5.52
2) CCOP(=O)(C[S@SP3](=O)(=O)c1ccc(NC(=O)c2nc(-c3ccc(C)cc3)cnc2N)cc1)OCC | > 5.52
3) CCO[P@](=O)(CC)CS(=O)(=O)c1ccc(NC(=O)c2nc(-c3ccc(C)cc3)cnc2N)cc1 | > 5.52
4) CCO[P@@](=O)(CC)CS(=O)(=O)c1ccc(NC(=O)c2nc(-c3ccc(C)cc3)cnc2N)cc1 | > 5.52
5) CC(=O)NS(=O)(=O)c1ccc(NC(=O)c2nc(-c3cc(F)ccc3C#N)cnc2N)cc1 | 4.30 to 5.52
6) Cc1ccc(-c2cnc(N)c(C(=O)Nc3ccc(S(=O)(=O)CC4COC4)cc3)n2)cc1 | > 5.52
7) COP(=O)(CS(=O)(=O)c1ccc(NC(=O)c2nc(-c3ccc(C)cc3)cnc2N)cc1)OC | > 5.52
